This collection of values is drawn from patent US7456274B2.

Here the recorded Ki is given for each entry.
system: B. cereus 5/B/6 metallo-β-lactamase (Bacillus cereus)
Assay type: biochemical
condition.parameters: slope replot of Lineweaver-Burk data; read-out: Ki (dissociation constant for the inhibitor from the enzyme-inhibitor complex)

{"compound": "OCCS [2-mercaptoethanol, reference compound]", "Ki (nM)": 2000}
{"compound": "O=C(O)CN(CCN(CC(=O)O)CC(=O)O)CC(=O)O [EDTA, reference compound]", "Ki (nM)": 750}

====

system: B. cereus 5/B/6 metallo-β-lactamase (Bacillus cereus, UniProt P14488)
Sequence (P14488 30-256): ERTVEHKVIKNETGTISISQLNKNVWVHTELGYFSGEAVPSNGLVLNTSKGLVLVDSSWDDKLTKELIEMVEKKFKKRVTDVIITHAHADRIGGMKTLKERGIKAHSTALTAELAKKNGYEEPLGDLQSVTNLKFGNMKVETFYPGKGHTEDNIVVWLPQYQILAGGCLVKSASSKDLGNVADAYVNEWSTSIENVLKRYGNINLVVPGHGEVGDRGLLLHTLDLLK
Assay type: biochemical
condition.parameters: intercept replot of Lineweaver-Burk data; read-out: Ki′ (dissociation constant for the inhibitor from the enzyme-substrate-inhibitor complex)
pKi: −log10 of the molar value.

{"substance": "5′-d(AACCAAACTTGGATCGGTGCACATGTCGAA)-3′ [30-mer]", "system": "B. cereus 5/B/6 metallo-β-lactamase (Bacillus cereus, UniProt P14488)", "pKi": 7.96}
